FYI, the data here is from paper PMC9942528.

- Measurement description: Stability assay in rat liver microsomes
- Assay type: in vitro ADME
- Assay setup: rat, rat liver microsomes, pH 7.4, half-life
Observation type: half-life at 10 μM (h)
Give the value, in units of h, as a plain number.

half-life at 10 μM reported for this compound N#Cc1ccc(C[C@@H](NC(=O)Nc2ccc(F)cc2)C(=O)N2CCc3cc(F)ccc32)cc1 [(R)-11i] : 1.8

###

Entries and their measured half-life at 2 h, 10 µM follow.
- Measurement description: Stability assay in rat liver microsomes
- Assay type: in vitro ADME
- Assay setup: rat, rat liver microsomes, pH 7.4, half-life
Respond numerically; units are min and should not be typed.

N#Cc1ccc(C[C@H](NC(=O)Nc2ccc(F)cc2)C(=O)NC2CCCCNC2=O)cc1 (stereo partly drawn) [(S)-11a] ... 157
N#Cc1ccc(C[C@H](NC(=O)Nc2ccc(F)cc2)C(=O)N2Cc3ccccc3C2)cc1 [(S)-11d] ... 28
N#Cc1ccc(C[C@H](NC(=O)Nc2ccc(F)cc2)C(=O)N2CCc3ccccc32)cc1 [(S)-11e] ... 21
N#Cc1ccc(C[C@@H](NC(=O)Nc2ccc(F)cc2)C(=O)N2CCc3ccc(F)cc32)cc1 [(R)-11l] ... 30

Please examine the following record next.
So, N#Cc1ccc(C[C@@H](NC(=O)Nc2ccc(F)cc2)C(=O)NC2CCCCNC2=O)cc1 (stereo partly drawn) [(R)-11a] ? Its half-life at 2 h, 10 µM was 120
